Recorded selectivity ratio values for a group of compounds are listed next.
# method: Selectivity index, ratio of GI50 for human HaCaT cells to GI50 for human SK-OV-3 cells
# Type: toxicity
# setup conditions: HaCaT cells versus SK-OV-3 cells, read-out: RatioGI50

Use the examples below as a reference point.
1) O=C1Nc2ccc(Cl)cc2/C1=C1/SC(=S)N(C2CC(=O)N(c3ccc(Cl)cc3)C2=O)C1=O (centres undefined) = 1
2) C=CCOc1cccc(/C=C2\SC(=S)N(C3CC(=O)N(c4ccc(Cl)cc4)C3=O)C2=O)c1 (centres undefined) = 1
3) O=C1CC(N2C(=O)/C(=C/C(Cl)=C/c3ccc([N+](=O)[O-])cc3)SC2=S)C(=O)N1c1ccc(O)cc1 (centres undefined) = 0.74
4) C=CCOc1ccccc1/C=C1\SC(=S)N(C2CC(=O)N(c3ccc(Cl)cc3)C2=O)C1=O (centres undefined) = 1
5) O=C1CC(N2C(=O)/C(=C/C(Cl)=C/c3ccc([N+](=O)[O-])cc3)SC2=S)C(=O)N1c1ccc(Cl)cc1 (centres undefined) = 1.52
6) O=C1Nc2ccccc2/C1=C1/SC(=S)N(C2CC(=O)N(c3ccc(Cl)cc3)C2=O)C1=O (centres undefined) = 1
7) O=C1CC(N2C(=O)CSC2=S)C(=O)N1c1ccc(O)cc1 (centres undefined) = 1.64
8) O=C1CC(N2C(=O)CSC2=S)C(=O)N1c1ccc(Cl)cc1 (centres undefined) = 0.98

Shift focus to the following entry.
IN: Can you share its selectivity ratio? I mean this compound: O=C1Nc2ccccc2/C1=C1/SC(=S)N(C2CC(=O)N(c3ccc(Br)cc3)C2=O)C1=O (centres undefined)
OUT: 1

* * *

Recorded GI50 values for a group of molecules are listed next.
# Test system: Jurkat
# method: Anticancer activity against human Jurkat cells assessed as cell growth inhibition incubated for 72 hrs by MTT assay
# Format: functional
// note: answer is a bare numeric in nM

IN: Can you share its GI50? I mean this molecule: C=CCOc1cccc(/C=C2\SC(=S)N(C3CC(=O)N(c4ccc(Cl)cc4)C3=O)C2=O)c1 (centres undefined)
OUT: 74000

IN: Can you share its GI50? I mean this molecule: `COc1cccc2c1C(=O)c1c(O)c3c(c(O)c1C2=O)C[C@@](O)(C(=O)CO)C[C@@H]3O[C@H]1C[C@H](N)[C@H](O)[C@H](C)O1`
OUT: 430

IN: Can you share its GI50? I mean this molecule: O=C1CC(N2C(=O)/C(=C/C(Cl)=C/c3ccc([N+](=O)[O-])cc3)SC2=S)C(=O)N1c1ccc(O)cc1 (centres undefined)
OUT: 1300

IN: Can you share its GI50? I mean this molecule: O=C1CC(N2C(=O)/C(=C/C(Cl)=C/c3ccc([N+](=O)[O-])cc3)SC2=S)C(=O)N1c1ccc(Cl)cc1 (centres undefined)
OUT: 3400

* * *

# method: Selectivity index, ratio of GI50 for human HaCaT cells to GI50 for human A549 cells
# Type: toxicity
# setup conditions: HaCaT cells versus A549 cells, read-out: RatioGI50
property measured: selectivity ratio
Form field (numeric): enter value without unit.

Use the examples below as a reference point.
1. C=CCOc1cccc(/C=C2\SC(=S)N(C3CC(=O)N(c4ccc(Cl)cc4)C3=O)C2=O)c1 (centres undefined) = 1
2. O=C1CC(N2C(=O)CSC2=S)C(=O)N1c1ccc(Cl)cc1 (centres undefined) = 0.98
3. O=C1CC(N2C(=O)/C(=C/C(Cl)=C/c3ccc([N+](=O)[O-])cc3)SC2=S)C(=O)N1c1ccc(O)cc1 (centres undefined) = 10.2
4. O=C1CC(N2C(=O)CSC2=S)C(=O)N1c1ccc(O)cc1 (centres undefined) = 1
5. O=C1Nc2ccccc2/C1=C1/SC(=S)N(C2CC(=O)N(c3ccc(Br)cc3)C2=O)C1=O (centres undefined) = 1
6. O=C1CC(N2C(=O)/C(=C/C(Cl)=C/c3ccc([N+](=O)[O-])cc3)SC2=S)C(=O)N1c1ccc(Cl)cc1 (centres undefined) = 1.56

IN: Can you share its selectivity ratio? I mean this compound: O=C1Nc2ccc(Cl)cc2/C1=C1/SC(=S)N(C2CC(=O)N(c3ccc(Cl)cc3)C2=O)C1=O (centres undefined)
OUT: 1

IN: Can you share its selectivity ratio? I mean this compound: C=CCOc1ccccc1/C=C1\SC(=S)N(C2CC(=O)N(c3ccc(Cl)cc3)C2=O)C1=O (centres undefined)
OUT: 1

IN: Can you share its selectivity ratio? I mean this compound: O=C1Nc2ccccc2/C1=C1/SC(=S)N(C2CC(=O)N(c3ccc(Cl)cc3)C2=O)C1=O (centres undefined)
OUT: 1

* * *

Recorded GI50 values for a group of molecules are listed next.
# System: HCT-116
# method: Anticancer activity against human HCT-116 cells assessed as cell growth inhibition incubated for 72 hrs by MTT assay
# Assay type: functional

IN: Can you share its GI50? I mean this molecule: O=C1CC(N2C(=O)/C(=C/C(Cl)=C/c3ccc([N+](=O)[O-])cc3)SC2=S)C(=O)N1c1ccc(O)cc1 (stereo unspecified)
OUT: 4.52 µM

IN: Can you share its GI50? I mean this molecule: O=C1CC(N2C(=O)CSC2=S)C(=O)N1c1ccc(O)cc1 (stereo unspecified)
OUT: > 100 µM

IN: Can you share its GI50? I mean this molecule: O=C1Nc2ccccc2/C1=C1/SC(=S)N(C2CC(=O)N(c3ccc(Br)cc3)C2=O)C1=O (stereo unspecified)
OUT: > 100 µM

IN: Can you share its GI50? I mean this molecule: O=C1Nc2ccccc2/C1=C1/SC(=S)N(C2CC(=O)N(c3ccc(Cl)cc3)C2=O)C1=O (stereo unspecified)
OUT: > 100 µM

IN: Can you share its GI50? I mean this molecule: O=C1Nc2ccc(Cl)cc2/C1=C1/SC(=S)N(C2CC(=O)N(c3ccc(Cl)cc3)C2=O)C1=O (stereo unspecified)
OUT: > 100 µM

IN: Can you share its GI50? I mean this molecule: C=CCOc1ccccc1/C=C1\SC(=S)N(C2CC(=O)N(c3ccc(Cl)cc3)C2=O)C1=O (stereo unspecified)
OUT: 57.1 µM

* * *

# method: Selectivity index, ratio of GI50 for human HaCaT cells to GI50 for human MDA-MB-231 cells
# Type: toxicity
# setup conditions: HaCaT cells versus MDA-MB-231 cells, read-out: RatioGI50
property measured: selectivity ratio
Form field (numeric): enter value without unit.

Use the examples below as a reference point.
1. C=CCOc1cccc(/C=C2\SC(=S)N(C3CC(=O)N(c4ccc(Cl)cc4)C3=O)C2=O)c1 (centres undefined) = 1
2. O=C1CC(N2C(=O)/C(=C/C(Cl)=C/c3ccc([N+](=O)[O-])cc3)SC2=S)C(=O)N1c1ccc(Cl)cc1 (centres undefined) = 15.5

IN: Can you share its selectivity ratio? I mean this compound: C=CCOc1ccccc1/C=C1\SC(=S)N(C2CC(=O)N(c3ccc(Cl)cc3)C2=O)C1=O (centres undefined)
OUT: 1.01

IN: Can you share its selectivity ratio? I mean this compound: O=C1CC(N2C(=O)CSC2=S)C(=O)N1c1ccc(O)cc1 (centres undefined)
OUT: 1

IN: Can you share its selectivity ratio? I mean this compound: O=C1Nc2ccccc2/C1=C1/SC(=S)N(C2CC(=O)N(c3ccc(Cl)cc3)C2=O)C1=O (centres undefined)
OUT: 1

* * *

# method: Selectivity index, ratio of GI50 for human HaCaT cells to GI50 for human Jurkat cells
# Type: toxicity
# setup conditions: HaCaT cells versus Jurkat cells, read-out: RatioGI50
Answer no if selectivity ratio is under 5, and yes if it is 5 or more.

Please review the entries below; each comes with its answer.
1) O=C1CC(N2C(=O)/C(=C/C(Cl)=C/c3ccc([N+](=O)[O-])cc3)SC2=S)C(=O)N1c1ccc(O)cc1 (centres undefined) = yes
2) C=CCOc1ccccc1/C=C1\SC(=S)N(C2CC(=O)N(c3ccc(Cl)cc3)C2=O)C1=O (centres undefined) = no
3) O=C1CC(N2C(=O)CSC2=S)C(=O)N1c1ccc(Cl)cc1 (centres undefined) = no
4) O=C1CC(N2C(=O)CSC2=S)C(=O)N1c1ccc(O)cc1 (centres undefined) = no
5) O=C1Nc2ccc(Cl)cc2/C1=C1/SC(=S)N(C2CC(=O)N(c3ccc(Cl)cc3)C2=O)C1=O (centres undefined) = yes

IN: Is it the case that O=C1Nc2ccccc2/C1=C1/SC(=S)N(C2CC(=O)N(c3ccc(Br)cc3)C2=O)C1=O (centres undefined) has selectivity ratio reaching or exceeding 5?
OUT: no

IN: Is it the case that O=C1Nc2ccccc2/C1=C1/SC(=S)N(C2CC(=O)N(c3ccc(Cl)cc3)C2=O)C1=O (centres undefined) has selectivity ratio reaching or exceeding 5?
OUT: no

IN: Is it the case that O=C1CC(N2C(=O)/C(=C/C(Cl)=C/c3ccc([N+](=O)[O-])cc3)SC2=S)C(=O)N1c1ccc(Cl)cc1 (centres undefined) has selectivity ratio reaching or exceeding 5?
OUT: yes

IN: Is it the case that C=CCOc1cccc(/C=C2\SC(=S)N(C3CC(=O)N(c4ccc(Cl)cc4)C3=O)C2=O)c1 (centres undefined) has selectivity ratio reaching or exceeding 5?
OUT: no
